Target: CCK receptors (Cavia porcellus, UniProt Q63931)
Construct: Cortical and pancreatic membranes were prepared as described; from tissue; host or cells: guinea pig pancreas membranes
Sequence (Q63931 1-430): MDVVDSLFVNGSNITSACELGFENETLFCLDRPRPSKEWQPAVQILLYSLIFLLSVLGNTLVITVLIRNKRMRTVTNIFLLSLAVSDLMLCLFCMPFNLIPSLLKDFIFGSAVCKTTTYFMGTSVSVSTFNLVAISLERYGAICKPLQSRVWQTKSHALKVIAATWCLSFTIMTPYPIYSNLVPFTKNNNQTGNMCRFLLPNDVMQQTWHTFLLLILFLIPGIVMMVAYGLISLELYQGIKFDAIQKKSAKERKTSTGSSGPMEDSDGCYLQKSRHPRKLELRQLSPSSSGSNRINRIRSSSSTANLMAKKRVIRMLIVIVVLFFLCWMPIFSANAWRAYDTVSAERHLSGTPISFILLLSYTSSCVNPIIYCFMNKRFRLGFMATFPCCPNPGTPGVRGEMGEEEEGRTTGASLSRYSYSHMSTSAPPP
Assay: Radioligand binding ([125I]Bolton-Hunter CCK8) in guinea pig pancreatic membranes
Settings: displacement of [125I]BH-CCK8, pancreatic membranes, 37°C for 150 min, Hill analysis; read-out: IC₅₀ (uM) pancreas
Square brackets hold non-standard residues; d marks the D form. Peptide text beside a SMILES is read from it. * marks the point of attachment. 1Nal = N[C@@H](Cc1cccc2ccccc12)C(=O)O; 2Nal = N[C@@H](Cc1ccc2ccccc2c1)C(=O)O; Cha = N[C@@H](CC1CCCCC1)C(=O)O; NMeL = CN[C@@H](CC(C)C)C(=O)O; Cbz = O=C(OCc1ccccc1)*; Boc = CC(C)(C)OC(=O)*
Give log10 IC50 for every item shown.
Log scale reminder: IC50 in µM, then log10 taken.

Please give log10 IC50, item by item, for the list that follows.
1. CCC[C@H]1CCN(C(=O)[C@@H]2Cc3c[nH]c4cccc(c34)CC(=O)N2)[C@@H]1C(=O)N[C@@H](CC(=O)O)C(=O)N[C@@H](Cc1ccc2ccccc2c1)C(N)=O
2. CC(C)C[C@H](NC(=O)[C@H](Cc1c[nH]c2ccccc12)NC(=O)OC(C)(C)C)C(=O)N[C@@H](CC(=O)O)C(=O)N[C@@H](Cc1cccc2ccccc12)C(N)=O [Example 45, Boc-Trp-Leu-Asp-α-Nal-NH₂] (Boc-WLD[1Nal]-NH2)
3. CCC[C@H]1CCN(C(=O)[C@H](Cc2c[nH]c3ccccc23)NC(=O)OC(C)(C)C)[C@@H]1C(=O)N[C@@H](CC(=O)O)C(=O)N[C@@H](Cc1ccccc1)C(N)=O
4. CCC[C@H]1CCN(C(=O)[C@@H]2Cc3c[nH]c4cccc(c34)CC(=O)N2)[C@@H]1C(=O)N[C@@H](CC(=O)O)C(=O)N(C)[C@@H](Cc1ccccc1)C(N)=O
5. CC(C)C[C@H](NC(=O)[C@H](Cc1c[nH]c2ccccc12)NC(=O)OC(C)(C)C)C(=O)N[C@@H](CC(=O)O)C(=O)N[C@@H](Cc1c[nH]c2ccccc12)C(N)=O [Example 42, Boc-Trp-Leu-Asp-Trp-NH₂] (Boc-WLDW-NH2)
6. CCC[C@H]1CCN(C(=O)[C@@H]2Cc3c[nH]c4cccc(c34)CC(=O)N2)[C@@H]1C(=O)N[C@@H](CC(=O)O)C(=O)N[C@@H](Cc1cccc2ccccc12)C(N)=O
7. CC(C)C[C@H](NC(=O)[C@H](Cc1c[nH]c2ccccc12)NC(=O)OC(C)(C)C)C(=O)N[C@@H](CC(=O)O)C(=O)NC(=Cc1ccccc1)C(N)=O [Example 19, Boc-Trp-Leu-Asp-(dehydro)Phe-NH₂]

Solution:
1. 1.04
2. 0.23
3. 1.95
4. 0.54
5. 0.58
6. 0.15
7. 0.26

Please give log10 IC50, item by item, for the list that follows.
1. CCC[C@H]1CCN(C(=O)[C@H](Cc2c[nH]c3ccccc23)NC(=O)OC(C)(C)C)[C@@H]1C(=O)N[C@@H](CC(=O)O)C(=O)N[C@@H](Cc1c[nH]c2ccccc12)C(N)=O
2. CC(C)C[C@H](NC(=O)[C@H](Cc1ccc2ccccc2c1)NC(=O)OC(C)(C)C)C(=O)N[C@@H](CC(=O)O)C(=O)N[C@@H](Cc1ccccc1)C(N)=O [Example 50, Boc-β-Nal-Leu-Asp-Phe-NH₂] (Boc-[2Nal]LDF-NH2)
3. CCC[C@H]1CCN(C(=O)[C@@H]2Cc3c[nH]c4cccc(c34)CC(=O)N2)[C@@H]1C(=O)N[C@@H](CC(=O)O)C(=O)N[C@@H](Cc1ccccc1)C(N)=O
4. CC(C)C[C@H](NC(=O)[C@@H]1Cc2c[nH]c3cccc(c23)CC(=O)N1)C(=O)N[C@@H](CC(=O)O)C(=O)N[C@@H](Cc1ccccc1)C(N)=O

Solution:
[0.57, 0.70, 0.54, 0.43]

Please give log10 IC50, item by item, for the list that follows.
1. CC(C)C[C@@H](C(=O)N[C@@H](CC(=O)O)C(=O)N[C@@H](Cc1ccccc1)C(N)=O)N(C)C(=O)[C@H](Cc1c[nH]c2ccccc12)NC(=O)OCc1ccccc1 [Example 15, Cbz-Trp-(NMe)Leu-Asp-Phe-NH₂] (Cbz-W[NMeL]DF-NH2)
2. CCC[C@H]1CCN(C(=O)[C@@H]2Cc3c[nH]c4cccc(c34)CC(=O)N2)[C@@H]1C(=O)N[C@@H](CC(=O)O)C(=O)N[C@@H](CC1CCCCC1)C(N)=O
3. CC(C)C[C@H](NC(=O)[C@H](Cc1c[nH]c2ccccc12)NC(=O)OC(C)(C)C)C(=O)N[C@@H](CC(=O)O)C(=O)N[C@@H](CC1CCCCC1)C(N)=O [Example 43, Boc-Trp-Leu-Asp-Cha-NH₂] (Boc-WLD[Cha]-NH2)

Solution:
0.00
0.63
1.04

Cited source for all entries: patent EP0405506A1
